ASSAY SYSTEM: Estrogen receptor beta (Homo sapiens, UniProt Q92731); note: in other assays of this panel Not Active means under 50% inhibition at 10 µM
Sequence (Q92731 whole entry): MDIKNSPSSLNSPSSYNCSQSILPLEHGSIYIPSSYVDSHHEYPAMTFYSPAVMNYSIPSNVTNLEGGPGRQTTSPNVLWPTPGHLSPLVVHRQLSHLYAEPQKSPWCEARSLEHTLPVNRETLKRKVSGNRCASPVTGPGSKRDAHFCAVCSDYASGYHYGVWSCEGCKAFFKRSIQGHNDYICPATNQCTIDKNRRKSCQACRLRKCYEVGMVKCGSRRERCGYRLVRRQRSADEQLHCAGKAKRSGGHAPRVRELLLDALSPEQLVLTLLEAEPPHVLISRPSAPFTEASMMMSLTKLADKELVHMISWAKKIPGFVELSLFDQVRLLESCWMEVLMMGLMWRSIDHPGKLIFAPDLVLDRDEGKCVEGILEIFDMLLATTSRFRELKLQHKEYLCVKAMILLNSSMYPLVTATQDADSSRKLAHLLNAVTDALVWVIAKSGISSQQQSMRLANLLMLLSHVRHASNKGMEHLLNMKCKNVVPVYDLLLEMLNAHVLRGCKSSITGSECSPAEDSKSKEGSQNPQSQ
DETAILS: sf9
MEASUREMENT TYPE: IC50

Worked set:
C[C@@H]1CC[C@H]2[C@@H](C)C(=O)O[C@@H]3O[C@@]4(C)CC[C@@H]1[C@]32OO4 = Not Active
Cc1cccc(Nc2ccccc2C(=O)O)c1C = Not Active
COc1cc(CNC(=O)CCCC/C=C/C(C)C)ccc1O = Not Active
CC(C(=O)O)c1ccc(CC2CCCC2=O)cc1 (stereo not given) = Not Active
O=C(/C=C/c1ccc(O)c(O)c1)OCCc1ccccc1 = Not Active

Q: Please give measured IC50 of the following entry: C[C@H](C(=O)O)c1cccc(C(=O)c2ccccc2)c1
Result: Not Active

Q: Please give measured IC50 of the following entry: N[C@@H](Cc1ccc(F)cc1)C(=O)O
Result: Not Active

Q: Please give measured IC50 of the following entry: COc1ccc(/C=C/C(=O)Nc2ccccc2C(=O)O)cc1OC
Result: Not Active

Q: Please give measured IC50 of the following entry: CCOC(=O)[C@H](CCc1ccccc1)N[C@@H](C)C(=O)N1Cc2ccccc2C[C@H]1C(=O)O
Result: Not Active

Q: Please give measured IC50 of the following entry: CN1C2CCCC1CC(NC(=O)c1nn(C)c3ccccc13)C2 (stereo not given)
Result: Not Active
